target: T1, canine NGF tagged at the C-terminus with the Flag tag (canine, UniProt A0A8I3PYI3 122-241); experiment: SPR off-rate screen, Fab-SASA on BSA chip
T1 construct: mature; Expressed with baculovirus technology; also called feline NGF (processed form identical)
T1 sequence (A0A8I3PYI3 entry or part of it): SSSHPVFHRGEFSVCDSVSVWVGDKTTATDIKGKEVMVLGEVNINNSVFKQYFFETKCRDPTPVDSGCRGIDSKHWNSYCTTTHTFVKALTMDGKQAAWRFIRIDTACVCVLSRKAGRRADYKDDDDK
reported metric: pKd
Give bare numbers, as −log10 of the molar value.

// worked examples, pKd included
>  <binder>
felinized clone 101 Fab-SASA variant N53V (VL) (Fab, V domains shown, not shown: small tags and cut ends) VH: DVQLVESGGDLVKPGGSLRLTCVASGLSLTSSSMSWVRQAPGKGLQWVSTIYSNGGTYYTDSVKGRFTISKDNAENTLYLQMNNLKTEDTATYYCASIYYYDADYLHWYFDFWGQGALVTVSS VL: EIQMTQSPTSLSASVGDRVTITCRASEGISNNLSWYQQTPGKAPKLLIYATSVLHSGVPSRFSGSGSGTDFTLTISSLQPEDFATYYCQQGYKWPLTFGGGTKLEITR

>  <reported metric>
pKd

>  <measurement>
8.85

$$$$
>  <binder>
felinized clone 101 Fab-SASA variant S56E (VL) (Fab, V domains shown, not shown: small tags and cut ends) VH: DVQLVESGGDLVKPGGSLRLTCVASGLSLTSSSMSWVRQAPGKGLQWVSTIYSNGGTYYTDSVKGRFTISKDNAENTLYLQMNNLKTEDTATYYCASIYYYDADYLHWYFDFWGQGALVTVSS VL: EIQMTQSPTSLSASVGDRVTITCRASEGISNNLSWYQQTPGKAPKLLIYATSNLHEGVPSRFSGSGSGTDFTLTISSLQPEDFATYYCQQGYKWPLTFGGGTKLEITR

>  <reported metric>
pKd

>  <measurement>
8.66

$$$$
>  <binder>
felinized clone 101 Fab-SASA variant T60D (VH) (Fab, V domains shown, not shown: small tags and cut ends) VH: DVQLVESGGDLVKPGGSLRLTCVASGLSLTSSSMSWVRQAPGKGLQWVSTIYSNGGTYYDDSVKGRFTISKDNAENTLYLQMNNLKTEDTATYYCASIYYYDADYLHWYFDFWGQGALVTVSS VL: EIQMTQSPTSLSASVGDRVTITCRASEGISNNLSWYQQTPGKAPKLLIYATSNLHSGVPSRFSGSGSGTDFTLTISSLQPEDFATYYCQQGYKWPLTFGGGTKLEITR

>  <reported metric>
pKd

>  <measurement>
8.71

$$$$
>  <binder>
felinized clone 101 Fab-SASA variant G55R (VH) (Fab, V domains shown, not shown: small tags and cut ends) VH: DVQLVESGGDLVKPGGSLRLTCVASGLSLTSSSMSWVRQAPGKGLQWVSTIYSNRGTYYTDSVKGRFTISKDNAENTLYLQMNNLKTEDTATYYCASIYYYDADYLHWYFDFWGQGALVTVSS VL: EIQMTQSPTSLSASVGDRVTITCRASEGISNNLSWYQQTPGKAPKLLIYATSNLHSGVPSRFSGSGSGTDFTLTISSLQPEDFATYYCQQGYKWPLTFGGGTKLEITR

>  <reported metric>
pKd

>  <measurement>
8.91

$$$$

Now consider a different binder.
// recorded pKd for felinized clone 101 Fab-SASA variant H55I (VL) (Fab, V domains shown, not shown: small tags and cut ends) VH: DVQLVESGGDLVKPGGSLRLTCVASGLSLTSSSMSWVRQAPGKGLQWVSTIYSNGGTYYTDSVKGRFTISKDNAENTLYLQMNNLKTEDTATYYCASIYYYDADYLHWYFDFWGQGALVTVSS VL: EIQMTQSPTSLSASVGDRVTITCRASEGISNNLSWYQQTPGKAPKLLIYATSNLISGVPSRFSGSGSGTDFTLTISSLQPEDFATYYCQQGYKWPLTFGGGTKLEITR : 8.88
